Could you please report measured Relative activity (reducing activity, Table 9) for the items listed next?
- System: FPDH
- experimental-details: Specificity of FPDH: reducing activity against various carbonyl compounds as substrates
- Format: biochemical, Candida maris IFO 10003
- reported-conditions: substrate 1 mM; 5-acetylfuro[2,3-c]pyridine = 100%; 0.25 mM NADH, pH 6.5, 30° C.
Response body: numeric value in %, unit text excluded.

# Relative activity (reducing activity, Table 9) of CCC=O = 70

Entry O=Cc1ccccn1 ; Relative activity (reducing activity, Table 9) = 54

Input CCC(=O)C(=O)O . Output Relative activity (reducing activity, Table 9): 5

O=Cc1cccc([N+](=O)[O-])c1 yielded Relative activity (reducing activity, Table 9) of 103

Field Relative activity (reducing activity, Table 9) (entry O=Cc1cccnc1 ) reads 47

# Relative activity (reducing activity, Table 9) of O=Cc1cccc(Cl)c1 = 111

The recorded Relative activity (reducing activity, Table 9) for entry O=Cc1ccccc1Cl equals 0

Looking up O=Cc1ccncc1 , I see its Relative activity (reducing activity, Table 9) listed as 64

Lookup result for CCCCCC=O ; measured Relative activity (reducing activity, Table 9): 71

Sample O=C1CCCc2ccccc21 ; Relative activity (reducing activity, Table 9) observed: 2

Notebook: O=Cc1ccc([N+](=O)[O-])cc1 , Relative activity (reducing activity, Table 9) read as 162

The compound listed as O=C1CCCCC1 shows Relative activity (reducing activity, Table 9) equal to 4

# Relative activity (reducing activity, Table 9) of O=C(O)CC(=O)C(=O)O = 4

The compound identified as O=Cc1ccccc1[N+](=O)[O-] registered its Relative activity (reducing activity, Table 9) at 9
